System: KM12
Experiment: Cytotoxicity against human KM12 cells
Assay type: functional
property.label: TGI (nM)
Dear colleague, please return just the value in nM, with no unit written.

Query: Note down TGI recorded for C/C=C1\NC(=O)[C@H](Cc2ccccc2)NC(=O)[C@@H](C(C)C)NC(=O)[C@@H]([C@@H](C)CC)NC(=O)[C@H](NC(=O)[C@H](NC(=O)[C@H](CCCNCc2ccc(F)cc2)NC(=O)[C@H]2CCCN2C(=O)[C@H](NC(=O)[C@@H](NC(=O)[C@@H](NC(=O)[C@H](NC(=O)CCCC(C)C)C(C)C)[C@@H](C)O)C(C)C)C(C)C)[C@@H](C)CC)[C@@H](C)OC(=O)[C@H](C(C)C)NC1=O
Response: 379

====

Measured MBC of individual entries
Test system: Mycobacterium intracellulare
Experiment: Antimicrobial activity against Mycobacterium intracellular ATCC 23068
Format: functional, organism-based

Below: 5 molecules and their reported MBC.
compound	property.label	result
C/C=C1\NC(=O)[C@H](Cc2ccccc2)NC(=O)[C@@H](C(C)C)NC(=O)[C@@H]([C@@H](C)CC)NC(=O)[C@H](NC(=O)[C@H](NC(=O)[C@H](CCCNCCCCCC)NC(=O)[C@H]2CCCN2C(=O)[C@H](NC(=O)[C@@H](NC(=O)[C@@H](NC(=O)[C@H](NC(=O)CCCC(C)C)C(C)C)[C@@H](C)O)C(C)C)C(C)C)[C@@H](C)CC)[C@@H](C)OC(=O)[C@H](C(C)C)NC1=O	MBC	> 20 µM
C/C=C1\NC(=O)[C@H](Cc2ccccc2)NC(=O)[C@@H](C(C)C)NC(=O)[C@@H]([C@@H](C)CC)NC(=O)[C@H](NC(=O)[C@H](NC(=O)[C@H](CCCNCc2cccs2)NC(=O)[C@H]2CCCN2C(=O)[C@H](NC(=O)[C@@H](NC(=O)[C@@H](NC(=O)[C@H](NC(=O)CCCC(C)C)C(C)C)[C@@H](C)O)C(C)C)C(C)C)[C@@H](C)CC)[C@@H](C)OC(=O)[C@H](C(C)C)NC1=O	MBC	> 20 µM
O=C(O)c1cn(C2CC2)c2cc(N3CCNCC3)c(F)cc2c1=O	MBC	> 1 µM
C/C=C1\NC(=O)[C@H](Cc2ccccc2)NC(=O)[C@@H](C(C)C)NC(=O)[C@@H]([C@@H](C)CC)NC(=O)[C@H](NC(=O)[C@H](NC(=O)[C@H](CCCN)NC(=O)[C@H]2CCCN2C(=O)[C@H](NC(=O)[C@@H](NC(=O)[C@@H](NC(=O)[C@H](NC(=O)CCCC(C)C)C(C)C)C(C)=O)C(C)C)C(C)C)[C@@H](C)CC)[C@@H](C)OC(=O)[C@H](C(C)C)NC1=O	MBC	> 20 µM
C/C=C1\NC(=O)[C@H](Cc2ccccc2)NC(=O)[C@@H](C(C)C)NC(=O)[C@@H]([C@@H](C)CC)NC(=O)[C@H](NC(=O)[C@H](NC(=O)[C@H](CCCNCc2ccncc2)NC(=O)[C@H]2CCCN2C(=O)[C@H](NC(=O)[C@@H](NC(=O)[C@@H](NC(=O)[C@H](NC(=O)CCCC(C)C)C(C)C)[C@@H](C)O)C(C)C)C(C)C)[C@@H](C)CC)[C@@H](C)OC(=O)[C@H](C(C)C)NC1=O	MBC	> 20 µM

Query: Note down MBC recorded for C/C=C1\NC(=O)[C@H](Cc2ccccc2)NC(=O)[C@@H](C(C)C)NC(=O)[C@@H]([C@@H](C)CC)NC(=O)[C@H](NC(=O)[C@H](NC(=O)[C@H](CCCN)NC(=O)[C@H]2CCCN2C(=O)[C@@H](NC(=O)[C@H](NC(=O)[C@H](NC(=O)[C@@H](NC(=O)CCCC(C)C)C(C)C)[C@H](C)OC(C)=O)C(C)C)C(C)C)[C@@H](C)CC)[C@@H](C)OC(=O)[C@H](C(C)C)NC1=O
Response: > 20 µM

====

System: Hs-578T
Experiment: Cytotoxicity against human HS578T cells
Type: functional
property.label: TGI (nM)
Dear colleague, please return just the value in nM, with no unit written.

compound	property.label	result
C/C=C1\NC(=O)[C@H](Cc2ccccc2)NC(=O)[C@@H](C(C)C)NC(=O)[C@@H]([C@@H](C)CC)NC(=O)[C@H](NC(=O)[C@H](NC(=O)[C@H](CCCNCc2ccc(F)cc2)NC(=O)[C@H]2CCCN2C(=O)[C@H](NC(=O)[C@@H](NC(=O)[C@@H](NC(=O)[C@H](NC(=O)CCCC(C)C)C(C)C)[C@@H](C)O)C(C)C)C(C)C)[C@@H](C)CC)[C@@H](C)OC(=O)[C@H](C(C)C)NC1=O	TGI	695
C/C=C1\NC(=O)[C@H](Cc2ccccc2)NC(=O)[C@@H](C(C)C)NC(=O)[C@@H]([C@@H](C)CC)NC(=O)[C@H](NC(=O)[C@H](NC(=O)[C@H](CCCNCc2cccs2)NC(=O)[C@H]2CCCN2C(=O)[C@H](NC(=O)[C@@H](NC(=O)[C@@H](NC(=O)[C@H](NC(=O)CCCC(C)C)C(C)C)[C@@H](C)O)C(C)C)C(C)C)[C@@H](C)CC)[C@@H](C)OC(=O)[C@H](C(C)C)NC1=O	TGI	2130

Query: Note down TGI recorded for C/C=C1\NC(=O)[C@H](Cc2ccccc2)NC(=O)[C@@H](C(C)C)NC(=O)[C@@H]([C@H](C)CC)NC(=O)[C@H](NC(=O)[C@H](NC(=O)[C@H](CCCN)NC(=O)[C@H]2CCCN2C(=O)[C@H](NC(=O)[C@@H](NC(=O)[C@@H](NC(=O)[C@H](NC(=O)CCCC(C)C)C(C)C)[C@@H](C)O)C(C)C)C(C)C)[C@H](C)CC)[C@H](C)OC(=O)[C@H](C(C)C)NC1=O [KAHALALIDE F]
Response: 479

====

System: Fusarium solani
Experiment: Fungicidal activity against Fusarium solani at 30 uM after 72 hrs by microtiter assay
Assay type: functional, organism-based
Activity calls are given as the source filed them. The rule behind the calls is not given here.
Output constraint: value belongs to active, inactive

compound	class
C/C=C1\NC(=O)[C@H](Cc2ccccc2)NC(=O)[C@@H](C(C)C)NC(=O)[C@@H]([C@@H](C)CC)NC(=O)[C@H](NC(=O)[C@H](NC(=O)[C@H](CCCNCc2ccncc2)NC(=O)[C@H]2CCCN2C(=O)[C@@H](NC(=O)[C@H](NC(=O)[C@H](NC(=O)[C@@H](NC(=O)CCCC(C)C)C(C)C)[C@H](C)O)C(C)C)C(C)C)[C@@H](C)CC)[C@@H](C)OC(=O)[C@H](C(C)C)NC1=O	active
C/C=C1\NC(=O)[C@H](Cc2ccccc2)NC(=O)[C@@H](C(C)C)NC(=O)[C@@H]([C@@H](C)CC)NC(=O)[C@H](NC(=O)[C@H](NC(=O)[C@H](CCCN)NC(=O)[C@H]2CCCN2C(=O)[C@@H](NC(=O)[C@H](NC(=O)[C@H](NC(=O)[C@@H](NC(=O)CCCC(C)C)C(C)C)[C@H](C)OC(C)=O)C(C)C)C(C)C)[C@@H](C)CC)[C@@H](C)OC(=O)[C@H](C(C)C)NC1=O	active
C/C=C1\NC(=O)[C@H](Cc2ccccc2)NC(=O)[C@@H](C(C)C)NC(=O)[C@@H]([C@@H](C)CC)NC(=O)[C@H](NC(=O)[C@H](NC(=O)[C@H](CCCNCc2cccs2)NC(=O)[C@H]2CCCN2C(=O)[C@@H](NC(=O)[C@H](NC(=O)[C@H](NC(=O)[C@@H](NC(=O)CCCC(C)C)C(C)C)[C@H](C)O)C(C)C)C(C)C)[C@@H](C)CC)[C@@H](C)OC(=O)[C@H](C(C)C)NC1=O	active
C/C=C1\NC(=O)[C@H](Cc2ccccc2)NC(=O)[C@@H](C(C)C)NC(=O)[C@@H]([C@H](C)CC)NC(=O)[C@H](NC(=O)[C@H](NC(=O)[C@H](CCCN)NC(=O)[C@H]2CCCN2C(=O)[C@H](NC(=O)[C@@H](NC(=O)[C@@H](NC(=O)[C@H](NC(=O)CCCC(C)C)C(C)C)[C@@H](C)O)C(C)C)C(C)C)[C@H](C)CC)[C@H](C)OC(=O)[C@H](C(C)C)NC1=O [KAHALALIDE F]	active
C/C=C1\NC(=O)[C@H](Cc2ccccc2)NC(=O)[C@@H](C(C)C)NC(=O)[C@@H]([C@@H](C)CC)NC(=O)[C@H](NC(=O)[C@H](NC(=O)[C@H](CCCNC(=O)c2cc3ccc(N(CC)CC)cc3oc2=O)NC(=O)[C@H]2CCCN2C(=O)[C@@H](NC(=O)[C@H](NC(=O)[C@H](NC(=O)[C@@H](NC(=O)CCCC(C)C)C(C)C)[C@H](C)O)C(C)C)C(C)C)[C@@H](C)CC)[C@@H](C)OC(=O)[C@H](C(C)C)NC1=O	inactive

Query: Can you look up the reported call for C[C@@H]1[C@H](O)[C@@H](C)/C=C/C=C/C=C/C=C/C=C/C=C/C=C/[C@H](O[C@@H]2O[C@H](C)[C@@H](O)[C@H](N)[C@@H]2O)C[C@@H]2O[C@](O)(C[C@@H](O)C[C@@H](O)[C@H](O)CC[C@@H](O)C[C@@H](O)CC(=O)O[C@H]1C)C[C@H](O)[C@H]2C(=O)O [AMPHOTERICIN B] for me?
Response: active
